molecular target: EphA4 LBD (Homo sapiens); construct: made in house; experiment: Isothermal titration calorimetry (ITC) binding; conditions: read-out: dissociation constant (KD)
Sequence (P54764 29-209, species assumed): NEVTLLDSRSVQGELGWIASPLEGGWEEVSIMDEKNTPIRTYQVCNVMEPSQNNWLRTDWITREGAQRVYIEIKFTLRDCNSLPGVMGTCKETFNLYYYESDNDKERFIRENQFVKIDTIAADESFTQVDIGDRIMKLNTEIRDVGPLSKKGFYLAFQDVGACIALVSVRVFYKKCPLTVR
reportedMetric: pKd
One number for each entry, as −log10 of the molar value.

Input line: Item under review: COc1cc2nc(N3CCN(C(=O)C4COc5ccccc5O4)CC3)nc(N)c2cc1OC (stereo not shown) . Reported pKd?
Output line: 4.91

----------
Please respond with reported Kd for every item in the list.
target: EphA2 LBD (Homo sapiens, UniProt P29317); construct: fused on or other part: Minimal biotinylation for capture on Neutravidin (doxazosin run); amine coupling for the other compounds; assay: Surface Plasmon Resonance binding analysis; conditions: SPR, recombinant LBD of EphA2; read-out: dissociation constant (KD)
Sequence (P29317 28-206 limits assumed): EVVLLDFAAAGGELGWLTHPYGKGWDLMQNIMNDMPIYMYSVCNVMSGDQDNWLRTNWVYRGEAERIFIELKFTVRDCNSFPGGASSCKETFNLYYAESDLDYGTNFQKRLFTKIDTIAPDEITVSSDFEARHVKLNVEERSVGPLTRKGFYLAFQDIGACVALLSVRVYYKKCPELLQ
Numbers only, in µM.

Would you mind listing Kd for each of the following molecules?
1. CC(CCc1ccc(O)cc1)NCCc1ccc(O)c(O)c1 (centres unmarked)
2. CC(CCc1ccccc1)NCC(O)c1ccc(O)c(C(N)=O)c1 (centres unmarked)

Output line:
1: 1500; 2: 440
